B1: HDV Ribozyme (parent)
chain: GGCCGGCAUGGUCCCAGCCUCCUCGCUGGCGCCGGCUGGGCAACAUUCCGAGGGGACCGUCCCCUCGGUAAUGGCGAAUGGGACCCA

variants of: B1; experiment: self-cleavage, relative activity (ratio to wild type); higher = more cleavage; co-transcriptional
Class criterion met: self-cleavage at least 0.2. Class criterion not met: self-cleavage below 0.2.

Form field: self-cleavage at least 0.2? Entry: G1U A83G
criterion met

Form field: self-cleavage at least 0.2? Entry: C22G C57A
criterion not met

Form field: self-cleavage at least 0.2? Entry: C22A C64U
criterion met

Form field: self-cleavage at least 0.2? Entry: A56U A70U
criterion met

Form field: self-cleavage at least 0.2? Entry: G68C A83G
criterion met

Form field: self-cleavage at least 0.2? Entry: C48G G68A
criterion met

Form field: self-cleavage at least 0.2? Entry: C22A G82U
criterion not met

Form field: self-cleavage at least 0.2? Entry: C4U C85U
criterion met

Form field: self-cleavage at least 0.2? Entry: G39A A83U
criterion not met

Form field: self-cleavage at least 0.2? Entry: A43G G80U
criterion not met

Form field: self-cleavage at least 0.2? Entry: G55U G82C
criterion met

Form field: self-cleavage at least 0.2? Entry: A51C C64A
criterion met

Form field: self-cleavage at least 0.2? Entry: C18A C21G
criterion not met

Form field: self-cleavage at least 0.2? Entry: C36G A87G
criterion not met

Form field: self-cleavage at least 0.2? Entry: G11A G40C
criterion not met

Form field: self-cleavage at least 0.2? Entry: U12G A87G
criterion met

Form field: self-cleavage at least 0.2? Entry: A16C G31U
criterion not met

Form field: self-cleavage at least 0.2? Entry: G53A A77G
criterion met

Form field: self-cleavage at least 0.2? Entry: G31U C62U
criterion met

Form field: self-cleavage at least 0.2? Entry: G53A C86G
criterion met

Form field: self-cleavage at least 0.2? Entry: G5A A16C
criterion not met

Form field: self-cleavage at least 0.2? Entry: C62A C64U
criterion met

Form field: self-cleavage at least 0.2? Entry: G2C G38C
criterion not met

Form field: self-cleavage at least 0.2? Entry: C13A A83C
criterion not met

Form field: self-cleavage at least 0.2? Entry: C62A C85A
criterion met

Form field: self-cleavage at least 0.2? Entry: C7G U72A
criterion not met

Form field: self-cleavage at least 0.2? Entry: G1U C86G
criterion met

Form field: self-cleavage at least 0.2? Entry: G38U U69G
criterion met

Form field: self-cleavage at least 0.2? Entry: G10U U12C
criterion not met

Form field: self-cleavage at least 0.2? Entry: U12A A70U
criterion met

Form field: self-cleavage at least 0.2? Entry: U79G C85G
criterion met

Form field: self-cleavage at least 0.2? Entry: C14U G59A
criterion met

Form field: self-cleavage at least 0.2? Entry: A16G C18A
criterion not met

Form field: self-cleavage at least 0.2? Entry: A77C G80U
criterion met

Form field: self-cleavage at least 0.2? Entry: C48G C61U
criterion met

Form field: self-cleavage at least 0.2? Entry: G11U G59C
criterion met

Form field: self-cleavage at least 0.2? Entry: C33U G50U
criterion met

Form field: self-cleavage at least 0.2? Entry: U47A U69C
criterion met

Form field: self-cleavage at least 0.2? Entry: C19U U72C
criterion not met

Form field: self-cleavage at least 0.2? Entry: C36U A77G
criterion met

Form field: self-cleavage at least 0.2? Entry: G25C U46C
criterion not met

Form field: self-cleavage at least 0.2? Entry: C14G A51C
criterion met

Form field: self-cleavage at least 0.2? Entry: A45U C57U
criterion met

Form field: self-cleavage at least 0.2? Entry: C24G A43C
criterion not met

Form field: self-cleavage at least 0.2? Entry: U23A G29C
criterion not met

Form field: self-cleavage at least 0.2? Entry: C48G U79C
criterion met

Form field: self-cleavage at least 0.2? Entry: C14G C86A
criterion met

Form field: self-cleavage at least 0.2? Entry: G29C C32A
criterion not met

Form field: self-cleavage at least 0.2? Entry: C22G G25U
criterion not met

Form field: self-cleavage at least 0.2? Entry: G29A G55U
criterion not met

Form field: self-cleavage at least 0.2? Entry: C75G U79A
criterion not met

Form field: self-cleavage at least 0.2? Entry: C22G G34C
criterion not met

Form field: self-cleavage at least 0.2? Entry: C4A C58G
criterion met

Form field: self-cleavage at least 0.2? Entry: U20G C36U
criterion not met

Form field: self-cleavage at least 0.2? Entry: U47C A51C
criterion met

Form field: self-cleavage at least 0.2? Entry: G6C C85U
criterion met

Form field: self-cleavage at least 0.2? Entry: G29C C84G
criterion met

Form field: self-cleavage at least 0.2? Entry: A42C C62U
criterion not met

Form field: self-cleavage at least 0.2? Entry: U20A U69G
criterion not met

Form field: self-cleavage at least 0.2? Entry: C14G G55C
criterion met

Form field: self-cleavage at least 0.2? Entry: U9C C44A
criterion met

Form field: self-cleavage at least 0.2? Entry: C49A G53A
criterion met

Form field: self-cleavage at least 0.2? Entry: G34C U60G
criterion not met

Form field: self-cleavage at least 0.2? Entry: A8C G50C
criterion met

Form field: self-cleavage at least 0.2? Entry: G38U C44A
criterion not met

Form field: self-cleavage at least 0.2? Entry: C44U G68A
criterion met

Form field: self-cleavage at least 0.2? Entry: U27C U79C
criterion not met

Form field: self-cleavage at least 0.2? Entry: A45C C84A
criterion met

Form field: self-cleavage at least 0.2? Entry: C14G G17C
criterion not met

Form field: self-cleavage at least 0.2? Entry: C3U G82C
criterion not met

Form field: self-cleavage at least 0.2? Entry: G55U
criterion met
